- Tested on: TK-10 renal
- Assay Explanation: NCI-60 one-dose screen, 48 h
- Condition Parameters: 10 µM
This is part of a sample that, as a whole, favours compounds with a hit. Of some 83,000 tested, about 20% had one in any assay. The source made the active and inactive calls. How the source made its calls: active means growth percent below 10; inactive means the rest.
Select the correct class. Options are True = active, False = inactive and nothing else.

Answered examples (5):
[
  {
    "Compound": "COc1ccc2nc3cc(Cl)ccc3c(NCCCNCCO)c2c1",
    "Group Label": "True"
  },
  {
    "Compound": "S=c1cnc2ccccc2[nH]1",
    "Group Label": "False"
  },
  {
    "Compound": "COc1ccc(-c2nnc(SCC(=O)Nc3ccc(C(=O)/C=C/c4ccccc4)cc3)n2-c2ccccc2)cc1OC",
    "Group Label": "False"
  },
  {
    "Compound": "CN(C)CCC1(c2ccccc2)CCN(C)C1=O (stereo not given)",
    "Group Label": "False"
  },
  {
    "Compound": "CCN(CC)CCCOc1cccc2c1C(=O)c1cccc(OCCCN(CC)CC)c1C2=O",
    "Group Label": "False"
  }
]

I would be grateful if you could indicate the recorded call for `CC(C)(C)c1ccc(S(=O)(=O)N[C@H]2CC[C@H]3[C@@H]4CCc5cc(O)c([N+](=O)[O-])cc5[C@H]4CC[C@]23C)cc1` .
False

I would be grateful if you could indicate the recorded call for `O=C(CI)OCC(COC(=O)CI)OC(=O)CI` .
False

I would be grateful if you could indicate the recorded call for `COc1ccc(/C=C2/SC(=S)NC2=O)c(OC)c1OC` .
False

I would be grateful if you could indicate the recorded call for COc1cc2c(cc1OC)C(C(CCCCCC(CCC(C)C)C1NCCc3cc(OC)c(OC)cc31)CCC(C)C)NCC2 (stereo not given) .
True

I would be grateful if you could indicate the recorded call for `COc1cc2c(cc1NC(=O)C(F)(F)F)-c1ccc(NC(=O)C(F)(F)F)cc1C2` .
False
